EXPERIMENTAL_SYSTEM: Prostaglandin G/H synthase 1 (Ovis aries, UniProt P05979)
Sequence (P05979 whole entry): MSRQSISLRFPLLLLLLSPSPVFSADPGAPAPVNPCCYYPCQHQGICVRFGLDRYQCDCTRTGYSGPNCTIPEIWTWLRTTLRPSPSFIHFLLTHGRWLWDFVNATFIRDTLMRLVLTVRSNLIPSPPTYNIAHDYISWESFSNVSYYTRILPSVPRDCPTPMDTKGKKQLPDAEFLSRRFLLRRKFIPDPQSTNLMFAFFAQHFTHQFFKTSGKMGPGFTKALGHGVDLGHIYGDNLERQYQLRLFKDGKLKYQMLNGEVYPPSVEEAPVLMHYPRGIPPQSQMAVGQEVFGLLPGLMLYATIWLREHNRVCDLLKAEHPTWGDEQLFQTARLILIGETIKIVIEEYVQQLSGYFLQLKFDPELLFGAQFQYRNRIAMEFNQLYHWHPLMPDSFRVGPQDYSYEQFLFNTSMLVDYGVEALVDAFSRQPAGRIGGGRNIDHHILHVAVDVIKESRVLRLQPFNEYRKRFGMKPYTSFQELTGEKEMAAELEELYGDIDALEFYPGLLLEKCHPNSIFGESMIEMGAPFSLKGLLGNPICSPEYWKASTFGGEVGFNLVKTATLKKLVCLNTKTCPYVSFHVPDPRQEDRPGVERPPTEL
METHOD: Inhibition of ovine COX-1 assessed as […] production using arachidonic acid as substrate preincubated for 10 mins followed by substrate addition and measured after 2 mins by enzyme immunoassay
pIC50: −log10 of the molar value.
MEASUREMENT_KIND: pIC50

Cc1c(CC(=O)NCCO[N+](=O)[O-])cc(-c2ccc(S(N)(=O)=O)cc2)n1-c1ccc(F)cc1 ... < 5.00

Proceed to the following item.
pIC50 reading for Cc1c(CC(=O)NCCO[N+](=O)[O-])cc(-c2ccc(S(N)(=O)=O)cc2)n1-c1cccc(F)c1 : < 5.00
